Each item that follows carries a reported growth.
Test system: CCRF-CEM leukemia
Experiment: NCI-60 one-dose screen, 48 h (100 = growth as untreated, 0 = no growth, -100 = all killed)
Conditions: 10 µM unless noted
Protocol: Growth inhibition of the CCRF-CEM human tumor cell line is measured as a screen for anti-cancer activity. Cells are grown in 96 well plates and exposed to the test compound for 48 hours. Compounds are tested at a single concentration, which is 10^-5 M for most compounds. The reported endpoint is percent growth (GI% or GIPRCNT), where numbers from 0 - 100% represent growth inhibition, and numbers from -100% - 0 represent cell death. For example, a value of 40 represents 60% growth inhibition. […]
About 83,000 compounds went through this panel and 20% of them were active in at least one assay; those are over-represented in the sample as a whole.

- Smi: "CCCCCCCCCCCC1=NC(C)(C)CN1C(C)C"
  Test System: "CCRF-CEM leukemia"
  growth, %: 29.3
- Smi: "Cc1ccncc1NC=O"
  Test System: "CCRF-CEM leukemia"
  growth, %: 104
- Smi: "O=C(O)c1ccccc1Oc1cc(-c2ccco2)nc(OCCN2CCOCC2)n1"
  Test System: "CCRF-CEM leukemia"
  growth, %: 94.2
- Smi: "CCN(CC)c1ccc(/C=N/NC(=O)C[N+](C)(C)C)cc1"
  Test System: "CCRF-CEM leukemia"
  growth, %: 90.9
- Smi: "CCCCCCCCCCCC1=NC(C)(C)CN1CCO"
  Test System: "CCRF-CEM leukemia"
  growth, %: 23.5
- Smi: "O=C(CC(=O)C(F)(F)C(F)(F)C(F)(F)F)c1cc2ccccc2o1"
  Test System: "CCRF-CEM leukemia"
  growth, %: 102
- Smi: "O=C(NCCN1CCCC1)n1cc(-c2ccncc2)c(-c2cc(O)cc(Cl)c2)n1"
  Test System: "CCRF-CEM leukemia"
  growth, %: 85.7
- Smi: "COc1cc(/C=C2\\CN(C(=O)OC(C)(C)C)C/C(=C\\c3ccc(O)c(OC)c3)C2=O)ccc1O"
  Test System: "CCRF-CEM leukemia"
  growth, %: 101
- Smi: "CNC(=O)c1c(NC(=O)c2cccc(C(F)(F)F)c2)sc2c1CCC(=O)C2"
  Test System: "CCRF-CEM leukemia"
  growth, %: -0.844
- Smi: "Clc1cc2nc(-c3ccccc3)c(-c3ccccc3)nc2cc1Cl"
  Test System: "CCRF-CEM leukemia"
  growth, %: 88.2
- Smi: "O=C(Nc1ccc(Br)cc1)Nc1cccc(Br)c1"
  Test System: "CCRF-CEM leukemia"
  growth, %: 15.6
